Source listed as paper PMC5296967.

biological target: recombinant OfurPBP5 (Ostrinia furnacalis); test: Competitive fluorescence binding assay with 1-NPN probe, OfurPBP5; conditions: OfurPBP5; pH 7.4; displacement of 1-NPN; mean ± SE; dash = undetectable interaction
Sequence (E7CCA3 entry or part of it): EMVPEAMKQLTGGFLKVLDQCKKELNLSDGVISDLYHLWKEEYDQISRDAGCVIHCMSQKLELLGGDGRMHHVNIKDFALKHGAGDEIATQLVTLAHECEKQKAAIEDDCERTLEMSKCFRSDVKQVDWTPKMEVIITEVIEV
pIC50: −log10 of the molar value.
QUANTITY_KIND: pIC50

Below, 5 molecules whose answers are already recorded.
molecule="CC/C=C/CCCCCCCCCCO [E11-14:OH, (E)-11-Tetradecenol]" quantity_kind=pIC50 result_value="< 5.22"
molecule="C/C=C/CCCCCCCCCCCOC(C)=O [E12-14:OAc, (E)-12-Tetradecenyl acetate]" quantity_kind=pIC50 result_value="< 5.22"
molecule="CCCC/C=C\\CCCCCCCCO [Z9-14:OH, (Z)-9-Tetradecenol]" quantity_kind=pIC50 result_value="< 5.22"
molecule="CC/C=C\\CCCCCCCCCCOC(C)=O [Z11-14:OAc, (Z)-11-Tetradecenyl acetate]" quantity_kind=pIC50 result_value=5.44
molecule="CC/C=C/CCCCCCCCCCOC(C)=O [E11-14:OAc, (E)-11-Tetradecenyl acetate]" quantity_kind=pIC50 result_value=5.72

Entry C/C=C\CCCCCCCCCCCOC(C)=O [Z12-14:OAc, (Z)-12-Tetradecenyl acetate] has what pIC50?
< 5.22

---

target: recombinant OfurPBP4 (Ostrinia furnacalis); assay: Competitive fluorescence binding assay with 1-NPN probe, OfurPBP4; conditions: OfurPBP4; pH 7.4; displacement of 1-NPN; mean ± SE; dash = undetectable interaction
Sequence (E7CCA2 entry or part of it): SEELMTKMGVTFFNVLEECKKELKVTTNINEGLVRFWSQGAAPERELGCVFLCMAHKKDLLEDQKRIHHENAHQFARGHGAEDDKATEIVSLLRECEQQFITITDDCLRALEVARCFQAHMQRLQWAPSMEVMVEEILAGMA
QUANTITY_KIND: IC50

The cases that follow already have their IC50 on record.
compound="C/C=C/CCCCCCCCCCCOC(C)=O [E12-14:OAc, (E)-12-Tetradecenyl acetate]" result_value="> 6 µM"
compound="CCCC/C=C\\CCCCCCCCO [Z9-14:OH, (Z)-9-Tetradecenol]" result_value="> 6 µM"

Any idea what IC50 came out for CC/C=C/CCCCCCCCCCO [E11-14:OH, (E)-11-Tetradecenol] on recombinant OfurPBP4 (Ostrinia furnacalis)?
> 6 µM

What is its IC50 for recombinant OfurPBP4 (Ostrinia furnacalis)? Entry: CC/C=C/CCCCCCCCCCOC(C)=O [E11-14:OAc, (E)-11-Tetradecenyl acetate]
2.31 µM

Form: Entry = CC/C=C\CCCCCCCCCCOC(C)=O [Z11-14:OAc, (Z)-11-Tetradecenyl acetate] | System = recombinant OfurPBP4 (Ostrinia furnacalis) | IC50 = ____
1.18 µM

Please tell me: IC50 of C/C=C\CCCCCCCCCCCOC(C)=O [Z12-14:OAc, (Z)-12-Tetradecenyl acetate] , system recombinant OfurPBP4 (Ostrinia furnacalis)?
> 6 µM
